# key: entry, value: multiples of prolonging aPTT
tested on: normal human plasma; assay: aPTT assay in normal human plasma; type: biochemical; conditions: 500 nM; ratio of mean aPTT to blank control

NAPTin-1 (protein, Sequence derived from Ancylostoma caninum or Synthetic) NPSCGENERHDECSRKECDPKCKYDGTEEKDDEKPVVCLTRVCYGDCICRDGFLRNKNGACVKAEDCELD = 5.69

Kindly consider the entry below.
Value of measured multiples of prolonging aPTT for the entry NAPTin-9 (protein, Sequence derived from Ancylostoma caninum or Synthetic) NPSCGENERHDECSRKECDPKCKYDGTEEKDDEKPVVCLTRVCYGDCICRDGFLRNKNGACVKAEDCELDNMEFI : 5.87
